Target: 11-beta-hydroxysteroid dehydrogenase type 2 (Rattus norvegicus, UniProt P50233)
Sequence (P50233 whole entry): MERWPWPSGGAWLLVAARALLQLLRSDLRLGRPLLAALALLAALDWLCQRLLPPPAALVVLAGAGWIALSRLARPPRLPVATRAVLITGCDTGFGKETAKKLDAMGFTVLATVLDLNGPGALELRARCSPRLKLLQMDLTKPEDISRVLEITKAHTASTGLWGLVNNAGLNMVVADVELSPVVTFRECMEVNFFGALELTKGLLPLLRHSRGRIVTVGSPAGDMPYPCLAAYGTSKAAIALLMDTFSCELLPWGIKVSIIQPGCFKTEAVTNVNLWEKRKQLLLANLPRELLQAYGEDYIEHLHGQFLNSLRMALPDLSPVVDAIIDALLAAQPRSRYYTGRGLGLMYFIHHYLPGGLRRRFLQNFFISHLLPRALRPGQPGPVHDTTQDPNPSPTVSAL
pIC50: −log10 of the molar value.

compound	pIC50
CC1(C)C2CC[C@]3(C)C(C(=O)C=C4[C@@H]5C[C@@](C)(C(=O)NCCO)CC[C@]5(C)CC[C@]43C)[C@@]2(C)CC[C@@H]1O (stereo partly specified)	11.40
